Just for reference, patent US8563714B2 is where these values come from.

# systemTested: human FPRL2 (Homo sapiens)
# Construct: expressed in transfected cells; host or cells: HEK293 (HEK293-hFPRL2-Gα16)
# Sequence (P25089 whole entry): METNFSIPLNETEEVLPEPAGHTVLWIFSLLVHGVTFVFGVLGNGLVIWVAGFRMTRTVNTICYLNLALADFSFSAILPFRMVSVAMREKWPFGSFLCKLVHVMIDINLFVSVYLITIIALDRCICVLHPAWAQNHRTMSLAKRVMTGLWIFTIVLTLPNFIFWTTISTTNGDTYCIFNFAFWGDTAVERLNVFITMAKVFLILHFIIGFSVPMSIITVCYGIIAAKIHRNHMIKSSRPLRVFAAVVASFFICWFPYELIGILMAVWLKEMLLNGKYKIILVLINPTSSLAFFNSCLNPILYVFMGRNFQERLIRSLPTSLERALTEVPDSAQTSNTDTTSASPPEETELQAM
# protocolSummary: Intracellular calcium measurements (FLIPR), agonistic activity in HEK293-hFPRL2-Gα16 cells
# Assay type: cell-based
# studyConditions: Fluo-4 calcium FLIPR, normalized to GLY14-Humanin 100 nM
Label True when EC50 is strictly below 600 nM; at or above that, label False.

compound="CCN1CCN(CCCCNC(=O)[C@H]2[C@H](C(=O)Nc3ccc(Br)cc3)[C@@H]3C=C[C@H]2C32CC2)CC1 [Example 208]" classassignment=True
compound="CC(C)(C)OC(=O)N1CCCC(NC(=O)C2C(C(=O)Nc3ccc(Br)cc3)C3C=CC2C32CC2)C1 (mixture of isomers) [Example 56]" classassignment=False
compound="O=C(NCCF)[C@H]1[C@H](C(=O)Nc2ccc(Br)cc2)[C@@H]2C=C[C@H]1C21CC1 (racemic) [Example 20]" classassignment=False
compound="O=C(NCCCCN1CCCC1)[C@H]1[C@H](C(=O)Nc2ccc(Br)cc2F)[C@@H]2C=C[C@H]1C21CC1 [Example 295]" classassignment=True
compound="CN(CCNC(=O)[C@H]1[C@H](C(=O)Nc2ccc(Br)cc2)[C@@H]2C=C[C@H]1C21CC1)C(=O)OC(C)(C)C (racemic) [Example 47]" classassignment=False
compound="COc1cc(CNC(=O)[C@H]2[C@H](C(=O)NCCCCN3CCCC3)[C@H]3C=C[C@@H]2C32CC2)ccn1 (racemic) [Example 361]" classassignment=True
compound="O=C(NC1CCCC1)[C@H]1[C@H](C(=O)Nc2ccc(Br)cc2)[C@@H]2C=C[C@H]1C21CC1 (racemic) [Example 15]" classassignment=False
compound="COc1ccc(NC(=O)[C@H]2[C@H](C(=O)NCCC(=O)O)[C@H]3C=C[C@@H]2C32CC2)cc1 [Example 287]" classassignment=False
compound="CC(=O)c1ccc(CNC(=O)[C@H]2[C@H](C(=O)NCCCCN3CCCC3)[C@H]3C=C[C@@H]2C32CC2)s1 (racemic) [Example 194]" classassignment=True
compound="Cc1nn(C)c(Cl)c1C(=O)NC[C@H]1[C@H](C(=O)Nc2ccc(Br)cc2)[C@@H]2C=C[C@H]1C21CC1 (racemic) [Example 190]" classassignment=False
compound="CC(=O)c1ccc(CNC(=O)[C@H]2[C@H](C(=O)NCCCCN3CCCC3)[C@H]3C=C[C@@H]2C32CC2)cc1 (racemic) [Example 363]" classassignment=True
compound="O=C(NCC1CCCN1)C1C(C(=O)Nc2ccc(Br)cc2)C2C=CC1C21CC1 (mixture of isomers) [Example 18]" classassignment=True
compound="O=C(NCC1C(C(=O)Nc2ccc(Br)cc2)C2C=CC1C21CC1)c1cnoc1-c1ccccc1 (stereo not shown) [Example 160]" classassignment=False
